Listing: growth of selected compounds
Tested on: SK-MEL-28 melanoma
Test Name: NCI-60 one-dose screen, 48 h (100 = growth as untreated, 0 = no growth, -100 = all killed)
Test Parameters: 10 µM unless noted
Experimental: Growth inhibition of the SK-MEL-28 human tumor cell line is measured as a screen for anti-cancer activity. Cells are grown in 96 well plates and exposed to the test compound for 48 hours. Compounds are tested at a single concentration, which is 10^-5 M for most compounds. The reported endpoint is percent growth (GI% or GIPRCNT), where numbers from 0 - 100% represent growth inhibition, and numbers from -100% - 0 represent cell death. For example, a value of 40 represents 60% growth inhibition. […]
Compounds without any hit were thinned out: in the full panel of roughly 83,000, 20% have a hit.

Compound	growth (%)
O=C(O)CC1Sc2ccccc2NC1=O (stereo not drawn)	126
O=S(=O)(Nc1ccsc1-c1nc(-c2ccccc2)no1)c1cc(Cl)cc(Cl)c1	88.2
O=C(Nc1ccc(N2CCCCC2)c(Cl)c1)c1ccc(Br)o1	39.6
COc1cc(-c2ccc(N=Nc3c(O)c(C(=O)Nc4ccccc4OC)cc4ccccc34)c(OC)c2)ccc1N=Nc1c(O)c(C(=O)Nc2ccccc2OC)cc2ccccc12	97.4
C=C1c2c(C)nn(-c3ccc(S(N)(=O)=O)cc3)c2N(C)C23CC1C1(C)c4c(C)nn(-c5ccc(S(N)(=O)=O)cc5)c4N(C)C(C)(CC12)C3 (stereo not drawn)	30.7
O=C1CC(c2ccc3c(c2)OCO3)Nc2cc3c(cc21)OCO3 (stereo not drawn)	65.6
CCCCCCCC/C=C/CCCCCCCC1=NCC[N+]1(CCO)CCO	96.3
Nc1c(C(=O)c2ccccc2)nnc2ncnn12	133
O=[N+]([O-])c1ccccc1C(O)Cc1ccc2ccccc2n1 (stereo not drawn)	92.9
O=C1/C(=C/c2ccc([N+](=O)[O-])cc2)COc2ccc(O)c(O)c21	54.6
CCN(CC)N=Nc1nn(C(=O)Nc2ccc(Cc3ccccc3)cc2)c2ccc(Cl)cc12	70.8
CCN(CC)c1ccc(Nc2ccc(CC(=O)c3ccccc3)cc2)cc1	98.5
C=C(C)C1CCC(=C)C2CCC3(C)OC12/C=C(/COC(C)=O)CCC3O (stereo not drawn)	156
CO[C@H]1/C=C/O[C@@]2(C)Oc3c(C)c(O)c4c(c3C2=O)C(=O)C(/C=N/N(c2ccccc2)c2ccccc2)=C(NC(=O)/C(C)=C\C=C\[C@H](C)[C@H](O)[C@@H](C)[C@@H](O)[C@@H](C)[C@H](OC(C)=O)[C@@H]1C)C4=O	-58.3
COc1ccc(-c2cn(-c3cccc(C(=O)/C=C/c4cc(OC)c(OC)c(OC)c4)c3)c(=O)[nH]2)cc1	-33.9
CN(C)c1ccc2cc(-c3ccc(Cl)c(Cl)c3)c(N)nc2c1	47.4
COc1cc(/C=C2\C=C(c3ccccc3)N(CCc3ccccc3)C2=O)cc(OC)c1OC	84.1
O=C(CC12CC3CC(CC(C3)C1)C2)NCCOCCOCCOCCNC(=O)c1cc2c(o1)C(=O)c1ccccc1C2=O	-58.5

----------
Test system: NCI-H460 lung
Test Name: NCI-60 one-dose screen, 48 h
Test Parameters: 10 µM unless noted
Compounds without any hit were thinned out: in the full panel of roughly 83,000, 20% have a hit. Activity calls are given as the source filed them. Rule for the calls: active = growth percent below 10; inactive = the rest.
Outcome codes: 1 = active, -1 = inactive

> print(dat)
                                   compound    measured.on  classification
1  CCN(CC)CC(O)CNc1c2ccc(Cl)cc2nc2ccc(OC)cc12 (stereo unspecified)  NCI-H460 lung               1
2  O=C1CC(c2ccc3c(c2)OCO3)Nc2cc3c(cc21)OCO3 (stereo unspecified)  NCI-H460 lung               1
3                            NC(N)=N/N=C/CO  NCI-H460 lung              -1
4  COc1cccc(CCC2CCCN(c3cc(C)nc(N)n3)C2)c1 (stereo unspecified)  NCI-H460 lung              -1
5  N=C(N)c1ccc(-c2ccc(-c3ccc(Cl)c(Cl)c3)o2)cc1  NCI-H460 lung               1
6         N#Cc1c(NC(=O)c2ccccc2I)sc2c1CCCC2  NCI-H460 lung              -1
